Measured Relative enzyme activity (%) 20% of solvent by item
Target: haloalkane dehalogenase DbjA (Bradyrhizobium diazoefficiens, UniProt P59337)
Sequence (P59337 whole entry): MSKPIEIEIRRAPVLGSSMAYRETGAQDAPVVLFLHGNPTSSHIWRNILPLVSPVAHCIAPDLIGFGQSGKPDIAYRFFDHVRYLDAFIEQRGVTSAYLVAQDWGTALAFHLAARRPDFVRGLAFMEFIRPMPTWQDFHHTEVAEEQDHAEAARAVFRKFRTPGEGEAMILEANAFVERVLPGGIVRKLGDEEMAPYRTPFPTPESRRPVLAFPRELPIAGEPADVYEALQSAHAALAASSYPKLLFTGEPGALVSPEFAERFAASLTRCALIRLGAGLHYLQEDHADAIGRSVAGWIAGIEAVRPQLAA
Format: biochemical, Bradyrhizobium japonicum USDA110
Conditions: pH 8.6
Number in %, nothing else.

Consider the reported Relative enzyme activity (%) 20% of solvent for these molecules:
>  <Molecule>
CO [Methanol]

>  <Quantitative Result>
160.7

$$$$
>  <Molecule>
NC=O [Formamide]

>  <Quantitative Result>
16.3

$$$$
>  <Molecule>
CC(C)=O [acetone]

>  <Quantitative Result>
168.2

$$$$
>  <Molecule>
CN(C)C=O [N,N-dimethylformamide]

>  <Quantitative Result>
101.9

$$$$

Q) Fill in: Relative enzyme activity (%) 20% of solvent of C1COCCO1 [1,4-dioxane] is ___
A) 152.0

Q) Fill in: Relative enzyme activity (%) 20% of solvent of OCCO [ethyleneglycol] is ___
A) 109.8

Q) Fill in: Relative enzyme activity (%) 20% of solvent of C1CCOC1 [tetrahydrofurane] is ___
A) 0.0

Q) Fill in: Relative enzyme activity (%) 20% of solvent of CC#N [acetonitrile] is ___
A) 0.0

###

Biological target: haloalkane dehalogenase LinB L177T (Sphingobium indicum, UniProt D4Z2G1, L177T)
Format: biochemical
Observed Property: Relative activities (% of wt) L177T

>  <Given Smiles>
BrCCBr

>  <Measured Target>
haloalkane dehalogenase LinB L177T (Sphingobium indicum, UniProt D4Z2G1, L177T)

>  <Relative activities (% of wt) L177T>
107 % of wt

$$$$
>  <Given Smiles>
CCCCI

>  <Measured Target>
haloalkane dehalogenase LinB L177T (Sphingobium indicum, UniProt D4Z2G1, L177T)

>  <Relative activities (% of wt) L177T>
424 % of wt

$$$$
>  <Given Smiles>
C=C(C)CCl

>  <Measured Target>
haloalkane dehalogenase LinB L177T (Sphingobium indicum, UniProt D4Z2G1, L177T)

>  <Relative activities (% of wt) L177T>
96 % of wt

$$$$
>  <Given Smiles>
CCCCBr

>  <Measured Target>
haloalkane dehalogenase LinB L177T (Sphingobium indicum, UniProt D4Z2G1, L177T)

>  <Relative activities (% of wt) L177T>
553 % of wt

$$$$

With those in mind, consider the next compound.
Q) Fill in: Relative activities (% of wt) L177T of `ICCCI` is ___
A) 108 % of wt

###

Measured Relative activities (% of wt) L177S by item
Molecular target: haloalkane dehalogenase LinB L177S (Sphingobium indicum, UniProt D4Z2G1, L177S)
Type: biochemical

Consider the reported Relative activities (% of wt) L177S for these compounds:
>  <Given Smiles>
ICCCI

>  <Relative activities (% of wt) L177S>
123 % of wt

$$$$
>  <Given Smiles>
C=C(C)CCl

>  <Relative activities (% of wt) L177S>
65 % of wt

$$$$
>  <Given Smiles>
CCCCI

>  <Relative activities (% of wt) L177S>
363 % of wt

$$$$
>  <Given Smiles>
CCCCBr

>  <Relative activities (% of wt) L177S>
381 % of wt

$$$$

Q) Relative activities (% of wt) L177S of `BrCCBr` on haloalkane dehalogenase LinB L177S (Sphingobium indicum, UniProt D4Z2G1, L177S)?
A) 84 % of wt

Data origin: patent US7632666B2
